B1: RIPK4 (parent)
chain: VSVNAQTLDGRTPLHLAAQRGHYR

# Variants of: B1
# measurement_description: protein stability index of a GFP-peptide fusion (GPS, HEK-293T) (PSI 1-6); higher = more stable;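 note: lentivirally expressed fusions sorted by FACS into six bins by GFP to DsRed ratio, PSI derived from sequencing read proportions per bin multiplied by bin number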
# test_conditions: c terminus: a fixed tail appended
property: protein stability index

mutant_code=A17P experimental_result=3.67
mutant_code=N4E experimental_result=3.17
mutant_code=H22G experimental_result=4.53
mutant_code=L14E experimental_result=4.47
mutant_code=Y23C experimental_result=3.43
mutant_code=T12Y experimental_result=2.4
mutant_code=A5N experimental_result=3.53
mutant_code=A17H experimental_result=3.27
mutant_code=L8G experimental_result=4.26
mutant_code=N4T experimental_result=3.04
mutant_code=P13G experimental_result=2.94
